# ASSAYED TARGET: canine TRPM8 (Canis lupus familiaris)
# Construct: expressed in transfected cells
# Sequence (Q1A7N1 1-1104): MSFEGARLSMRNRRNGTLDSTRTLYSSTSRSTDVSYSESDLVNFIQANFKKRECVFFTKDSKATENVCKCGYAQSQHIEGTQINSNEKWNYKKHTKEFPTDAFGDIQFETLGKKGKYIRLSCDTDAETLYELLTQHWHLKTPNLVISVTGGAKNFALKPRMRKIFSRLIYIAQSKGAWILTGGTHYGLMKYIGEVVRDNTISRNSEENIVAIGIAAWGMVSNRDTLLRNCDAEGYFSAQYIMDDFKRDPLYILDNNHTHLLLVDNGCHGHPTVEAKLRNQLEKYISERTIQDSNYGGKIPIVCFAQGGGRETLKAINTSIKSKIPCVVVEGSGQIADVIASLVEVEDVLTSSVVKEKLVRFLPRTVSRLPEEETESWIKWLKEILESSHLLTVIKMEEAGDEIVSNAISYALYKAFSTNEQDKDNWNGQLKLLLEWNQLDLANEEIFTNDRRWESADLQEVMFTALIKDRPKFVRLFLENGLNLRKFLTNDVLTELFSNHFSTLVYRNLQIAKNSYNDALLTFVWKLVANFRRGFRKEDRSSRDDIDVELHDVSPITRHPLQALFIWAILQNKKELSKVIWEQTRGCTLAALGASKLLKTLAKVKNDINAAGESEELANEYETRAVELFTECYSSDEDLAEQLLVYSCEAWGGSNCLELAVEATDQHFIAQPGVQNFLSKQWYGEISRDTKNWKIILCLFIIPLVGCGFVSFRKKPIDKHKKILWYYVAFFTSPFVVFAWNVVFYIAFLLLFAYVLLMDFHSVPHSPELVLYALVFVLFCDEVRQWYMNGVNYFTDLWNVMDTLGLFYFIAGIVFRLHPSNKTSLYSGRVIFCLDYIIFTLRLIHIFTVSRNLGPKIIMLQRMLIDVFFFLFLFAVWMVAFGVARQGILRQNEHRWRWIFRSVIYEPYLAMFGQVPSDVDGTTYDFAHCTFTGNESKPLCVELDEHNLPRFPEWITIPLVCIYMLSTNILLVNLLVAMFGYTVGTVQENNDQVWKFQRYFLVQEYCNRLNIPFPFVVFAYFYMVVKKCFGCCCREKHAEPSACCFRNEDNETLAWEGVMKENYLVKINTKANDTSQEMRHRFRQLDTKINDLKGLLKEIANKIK
# ASSAY COMMENT: In vitro canine TRPM8 functional assay (Ca2+-sensitive dye, FLIPR/FDSS, icilin activation)
# Format: cell-based
# EXPERIMENTAL CONDITIONS: 0.5 μM compound; HEK293 cells expressing canine TRPM8, icilin activation
# % I (0.5 μM) per entry
I only need the number, in %, no unit after it.

Please review the entries below; each comes with its answer.
## Input Retrieve % I (0.5 μM) on canine TRPM8 (Canis lupus familiaris); query CCOP(=O)(OCC)C(Cc1ccc(Cl)cc1)c1sc2ccccc2c1Cl (racemic)
## Output 103

## Input Provide measured % I (0.5 μM) on canine TRPM8 (Canis lupus familiaris) for CCOP(=O)(OCC)C(Cc1cccc(C(F)(F)F)c1F)c1sc2ccccc2c1Cl (racemic) please.
## Output 102

## Input Give canine TRPM8 (Canis lupus familiaris) % I (0.5 μM) for the following molecule: CCOP(=O)(OCC)C(Cc1ccc(OC)c(F)c1)c1sc2ccccc2c1Br (racemic)
## Output 101

Others:
## Input Enter % I (0.5 μM) (test system canine TRPM8 (Canis lupus familiaris)) for CC(C)OP(=O)(OC(C)C)C(Cc1ccc(O)c(F)c1)c1sc2ccccc2c1Br (racemic)
## Output 52

## Input Give % I (0.5 μM) for this entry on canine TRPM8 (Canis lupus familiaris): CC(C)OP(=O)(OC(C)C)C(Cc1cc(C(F)(F)F)ccc1Cl)c1sc2ccccc2c1Cl (centres unmarked)
## Output 79

## Input For canine TRPM8 (Canis lupus familiaris), give % I (0.5 μM) of the listed molecule: CC(C)OP(=O)(OC(C)C)C(Cc1cccc(C(F)(F)F)c1Cl)c1sc2ccccc2c1Br (centres unmarked)
## Output 104

## Input Provide % I (0.5 μM), tested on canine TRPM8 (Canis lupus familiaris), for CCOP(=O)(OCC)C(Cc1cccc(C(=O)OC)c1)c1sc2ccccc2c1Br (centres unmarked) .
## Output 102

## Input Supply % I (0.5 μM) measured with canine TRPM8 (Canis lupus familiaris) for CCOP(=O)(OCC)C(Cc1cccc(Cl)c1)c1sc2ccccc2c1Cl (racemic) .
## Output 103
